# System: Pseudomonas aeruginosa
# method: Inhibition of N-terminal His-tagged Pseudomonas aeruginosa RmIA expressed in Escherichia coli BL21 (lambdaDE3) at 10 uM using dTTP and G-1-P as substrates incubated for 30 mins by Biomol green reagent based assay relative to control
outcome-measure: inhibition (%)

smiles-input: CN(c1c(N)n(Cc2ccc(Br)cc2)c(=O)[nH]c1=O)S(=O)(=O)c1ccccc1
result-units: %
obs-value: 100
--
smiles-input: CN(c1c(NCCCn2cc(CN)nn2)n(Cc2ccccc2)c(=O)[nH]c1=O)S(=O)(=O)c1ccccc1
result-units: %
obs-value: 100
--
smiles-input: CN(c1c(NCCCCN)n(Cc2ccc(Br)cc2)c(=O)[nH]c1=O)S(=O)(=O)c1ccccc1
result-units: %
obs-value: 100
--
smiles-input: CNCCCNc1c(N(C)S(=O)(=O)c2ccccc2)c(=O)[nH]c(=O)n1Cc1ccc(Br)cc1
result-units: %
obs-value: 100
--
smiles-input: CN(c1c(NCCCCCN)n(Cc2ccc(Br)cc2)c(=O)[nH]c1=O)S(=O)(=O)c1ccccc1
result-units: %
obs-value: 100
